Test system: OCI-AML2;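 note: after 48 h exposure read by CellTiter-Glo luminescence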
Test: cell viability relative to vehicle control; higher = less cytotoxic
Details: 10 µM; SRSF2 genotype: P95H/wt
Kindly state cell viability for each of the entries shown.
Express the result in % but write the number alone.

Prompt: # input compound: Cc1cc(Nc2ncnc3ccc(NC4=NC(C)(C)CO4)cc23)ccc1Oc1ccn2ncnc2c1 ; wanted: its cell viability
Completion: 64.9

Prompt: For the compound shown here, CCn1cc(NC(=S)Nc2cc(Cl)ccc2OC)c(C(N)=O)n1 , give the reported cell viability.
Completion: 95.2

Prompt: Entry O=C(Nc1cccnc1)c1cc(-c2ccnc(F)c2)ccc1OCc1ccccc1 : reported cell viability = ?
Completion: 95.8

Prompt: If you can, please state the reported cell viability value of CC1(C)CC[C@]2(C(=O)O)[C@H](O)C[C@]3(C)C(=CC[C@@H]4[C@@]5(C)CC[C@H](O)C(C)(C)[C@@H]5CC[C@]43C)[C@H]2C1 [Echinocystic acid] .
Completion: 82.8

Prompt: Can you look up the measured cell viability of O=C(O)CC(O)C(=O)O (centres undefined) [Malic acid] for me?
Completion: 102

Prompt: Which value of cell viability has been reported for CN(C)Cc1cccc(N=C(c2ccccc2)c2c(O)[nH]c3cc(C(=O)N(C)C)ccc23)c1 in the records?
Completion: 38.5

Prompt: Value lookup for cell viability; key = CN1C(CCl)Nc2cc(Cl)c(S(N)(=O)=O)cc2S1(=O)=O (centres undefined) [Methyclothiazide]
Completion: 96.3

Prompt: // returns reported cell viability for input O=CCc1ccccc1 [Phenylacetaldehyde]
Completion: 99.5

Prompt: Request the reported cell viability associated with Nc1ccn([C@@H]2CS[C@H](CO)O2)c(=O)n1 [Lamivudine (Epivir)]
Completion: 106

Prompt: Which cell viability is listed for CO[C@H]1C[C@@H]2CC[C@@H](C)[C@@](O)(O2)C(=O)C(=O)N2CCCC[C@H]2C(=O)O[C@H]([C@H](C)C[C@@H]2CC[C@@H](OCCO)[C@H](OC)C2)CC(=O)[C@H](C)/C=C(\C)[C@@H](O)[C@@H](OC)C(=O)[C@H](C)C[C@H](C)/C=C/C=C/C=C/1C [Everolimus (RAD001)] ?
Completion: 60

Prompt: # lookup: cell viability of CC(CN(C)C)Oc1nc(Nc2cc3cccc(Cl)c3cn2)cnc1C#N (centres undefined)
Completion: 17

Prompt: Would you mind telling me what cell viability value was observed for CC(C)(O)C1CCC(C)(C2C(O)CC3(C)C4CC(OC5OC(CO)C(O)C(O)C5O)C5C(C)(C)C(OC6OCC(O)C(O)C6O)CCC56CC46CCC23C)O1 (centres undefined) [Astragaloside A] ?
Completion: 97.2

Prompt: Query (compound): CC1(C)CC[C@]2(C(=O)O[C@@H]3O[C@H](CO[C@@H]4O[C@H](CO)[C@@H](O)[C@H](O)[C@H]4O)[C@@H](O)[C@H](O)[C@H]3O)CC[C@]3(C)C(=CC[C@@H]4[C@@]5(C)CC[C@H](O[C@@H]6OC[C@H](O)[C@H](O)[C@H]6O)[C@@](C)(CO)[C@@H]5CC[C@]43C)[C@@H]2C1 [Akebia saponin D] ; field requested: cell viability
Completion: 96.4

Prompt: So what's the measured cell viability for this one? CNC(=O)c1cc(COc2nnc(Nc3ccc(Cl)cc3)c3ccoc23)ccn1 [Telatinib (BAY 57-9352)]
Completion: 90.6
